Biological target: Bombyx mori EcR (VP16 fusion, switch construct CVBE) with 6XEcRE LacZ reporter (Bombyx mori)
Construct: expressed in transfected cells; host or cells: Human 293 kidney (HEK-293) cells, retrovirally infected, clone Z3
Sequence (P49881 86-606 limits assumed): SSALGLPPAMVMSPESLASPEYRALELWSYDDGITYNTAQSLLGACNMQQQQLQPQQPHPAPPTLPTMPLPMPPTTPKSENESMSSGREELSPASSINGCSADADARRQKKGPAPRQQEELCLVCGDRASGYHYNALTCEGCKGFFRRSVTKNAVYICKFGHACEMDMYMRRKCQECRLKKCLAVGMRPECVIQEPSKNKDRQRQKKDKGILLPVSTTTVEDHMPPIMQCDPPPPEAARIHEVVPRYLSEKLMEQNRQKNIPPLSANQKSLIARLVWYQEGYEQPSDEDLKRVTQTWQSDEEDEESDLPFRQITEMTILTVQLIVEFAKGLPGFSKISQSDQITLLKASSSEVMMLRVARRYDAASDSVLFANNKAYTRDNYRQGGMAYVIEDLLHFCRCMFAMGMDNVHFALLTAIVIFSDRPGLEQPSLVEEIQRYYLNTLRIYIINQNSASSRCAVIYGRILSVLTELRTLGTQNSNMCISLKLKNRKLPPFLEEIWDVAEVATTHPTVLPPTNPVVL
Sequence (P19793 1-462 partner): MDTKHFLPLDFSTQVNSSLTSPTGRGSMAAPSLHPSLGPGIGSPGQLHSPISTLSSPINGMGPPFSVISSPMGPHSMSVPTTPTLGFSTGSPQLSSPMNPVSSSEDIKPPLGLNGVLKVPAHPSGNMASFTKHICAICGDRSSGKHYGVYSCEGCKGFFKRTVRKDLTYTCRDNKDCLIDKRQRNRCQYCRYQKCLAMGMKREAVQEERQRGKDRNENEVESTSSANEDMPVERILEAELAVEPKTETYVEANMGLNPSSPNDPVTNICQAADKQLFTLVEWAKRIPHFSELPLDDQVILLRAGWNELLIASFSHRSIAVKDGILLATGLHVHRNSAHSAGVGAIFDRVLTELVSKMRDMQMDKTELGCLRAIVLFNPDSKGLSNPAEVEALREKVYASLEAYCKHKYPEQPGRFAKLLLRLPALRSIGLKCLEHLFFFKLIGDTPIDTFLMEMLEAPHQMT
Test: Z3 assay: β-galactosidase (LacZ) reporter gene fold induction in stably transformed human 293 kidney cells (clone Z3)
Type: cell-based
Conditions: single dose 33 μM; ligand treated / DMSO treated cells; read-out: Fold Induction Average, Z3 Assay (33 μM)
Lab note: compare fold induction at 33 µM with 300, writing Yes if less and No if equal or more.

Given the entry COc1cccc(C(=O)NC2(C(=O)c3cc(C)cc(C)c3)CCN(C(C)=O)CC2)c1C [Example 149] , would its reported fold induction at 33 µM be below 300?
Yes

Similarly, COc1cccc(C(=O)NC(C)(C(=O)c2ccccc2C)C(C)C)c1C (stereo not drawn) [Example 63] ?
No

Similarly, COc1cccc(C(=O)NC(C)(C(=O)c2ccc(C)cc2)C(C)C)c1C (stereo not drawn) [Example 33] ?
Yes

Similarly, COc1cccc(C(=O)NC2(C(=O)c3cc(C)cc(C)c3)CCCCC2)c1C [Example 11] ?
No

Similarly, COc1cccc(C(=O)NC(C)(C(=O)c2cccc(C)c2)C(C)C)c1C (stereo not drawn) [Example 31] ?
No

Similarly, COc1cccc(C(=O)NC2(C(=O)c3cc(C)cc(C)c3)CCC2)c1C [Example 14] ?
No

Similarly, CCC(CC)(NC(=O)c1cccc(OC)c1C)C(=O)c1ccc(F)cc1 [Example 38] ?
Yes

Similarly, CCC(CC)(NC(=O)c1cccc(OC)c1C)C(=O)c1cc(C)cc(C)c1 [Example 51] ?
No

Similarly, COc1cccc(C(=O)NC2(C(=O)c3cc(C)cc(C)c3)CCNCC2)c1C [Example 147] ?
Yes
